# Tested on: HOP-62 multicell spheroids with HUVEC/MSC, viability
# testProtocol: Anticancer human tumor HOP-62 cell line growth inhibition [KRAS2]; active means viability on the fitted dose curve at most 10% of control; inactive means the rest;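 further: viability read after a week of compound exposure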
# assayContext: second compound 0.1 µM; first compound 3.16 µM
# From the text: Multicellular complex tumor spheroid response to RAS pathway inhibitors in combination with a targeted agents in patient-derived cell lines with oncogenic KRAS variants from multiple cancer types A high-throughput screen of multi-cell type tumor spheroids was designed to identify active combinations of targeted small molecules and KRAS pathway inhibitors. […] Compounds. […] If the clinical Cmax for an agent had not been determined, the highest concentration tested was 10 microM. […]
# output must be one of active, inactive

CC(=O)OC12COC1CC(O)C1(C)C(=O)C(O)C3=C(C)C(OC(=O)C(O)C(NC(=O)OC(C)(C)C)c4ccccc4)CC(O)(C(OC(=O)c4ccccc4)C21)C3(C)C (stereo not given) + C=CC(=O)N1CCN(c2nc(OCC3CCCN3C)nc3c2CCN(c2cccc4cccc(C)c24)C3)CC1CC#N = inactive
CCNC(=O)CC1N=C(c2ccc(Cl)cc2)c2cc(OC)ccc2-n2c(C)nnc21 (stereo not given) + CNCc1ccccc1-c1csc(C(C)Nc2nc(C)nc3cc(OC)c(OC)cc23)c1 = inactive
CC(C)NCC(C(=O)N1CCN(c2ncnc3c2C(C)CC3O)CC1)c1ccc(Cl)cc1 (stereo not given) + COc1cc2nc(C)nc(NC(C)c3cc(N)cc(C(F)(F)F)c3)c2cc1OC1CCOC1 = inactive
CC1OCC2(CCN(c3cnc(Sc4ccnc(N)c4Cl)c(N)n3)CC2)C1N (stereo not given) + C=CC(=O)N1CCN(c2nc(OCC3CCCN3C)nc3c2CCN(c2cccc4cccc(C)c24)C3)CC1CC#N = inactive

Now, please, on to the next molecule.
Exercise: In this assay, the call recorded for CC(C)NCC(C(=O)N1CCN(c2ncnc3c2C(C)CC3O)CC1)c1ccc(Cl)cc1 (stereo not given) + C=CC(=O)N1CCN(c2nc(=O)n(-c3c(C)ccnc3C(C)C)c3nc(-c4c(O)cccc4F)c(F)cc23)C(C)C1 was what?
Key: active
